Tested on: HOP-62 NSCLC
Test: NCI tumour cell line growth inhibition, 48 h
Readout name: TGI (µM)
Respond numerically; units are µM and should not be typed.

C=C(C=O)C1CC(=O)C(C(=O)OC)[C@@H]2O[C@@](C)(CC2=O)C[C@@H]2OC(=O)[C@]3(O[C@@H]23)[C@@H](C(=O)OC)C1 (some centres not stated) ... 58.8

Noted for CCOC(=O)c1cc2c(OC(C)=O)ccc(OC(C)=O)c2s1 : its TGI reads 23.9

Noted for CCCCCc1cc2c(cc1O)CC[C@@H]1[C@@H]2CC[C@]2(C)[C@@H](O)CC[C@@H]12 : its TGI reads 41.7

Noted for CCCCC[C@@H]1OCO[C@@]2(C)/C=C(C)/C=C/C(=O)O[C@H]([C@@H](C)[C@@H](O)[C@H](C)[C@@]3(O)C[C@@H](O[C@H]4C[C@@H](O)[C@H](O)[C@@H](C)O4)[C@H](C)[C@@H](C)O3)[C@@H](OC)/C=C/C=C(\C)C[C@@H]1[C@@H]2O (stereo in doubt) : its TGI reads 7.02

====

Recorded measurements of TGI, one per entry
Test system: 786-0 renal
Assay: NCI tumour cell line growth inhibition, 48 h

COc1ccc(-c2oc(=O)ccc2C#Cc2cc(OC)c(OC)c(OC)c2)cc1O ... > 100 µM
CCCn1c(C23CC4CC(CC(C4)C2)C3)nc2ccc(Cl)cc2c1=O ... > 100 µM
O=C(C1=C(C(=O)c2ccccc2)SC2(S1)C(C(=O)c1ccccc1)=C(C(=O)c1ccccc1)Sc1c2ssc1=O)c1ccccc1 ... > 100 µM
Cn1c(=O)c2c(-c3ccccc3)onc2n(C)c1=O ... 86.5 µM
COc1cc([C@@H]2c3cc4c(cc3[C@@H](NC(=O)c3ccc(N)cc3)C3COC(=O)[C@@H]32)OCO4)cc(OC)c1O (some centres undefined) ... 3.84 µM

Noted for O=C1/C(=C/c2ccccc2)CCc2ccc(Cl)nc21 : its TGI reads 21.8 µM

Noted for S=c1nc[nH]c2c1ncn2Cc1ccco1 : its TGI reads > 100 µM

Noted for Cc1ccc(S(=O)(=O)N(/N=C(\N)Oc2ccc(Cl)cc2)C(=N)Oc2ccc(Cl)cc2)cc1 : its TGI reads > 100 µM

Noted for Cc1cccc(C(C)(C)C)c1NC(=O)/C(Cc1nc2ccc([N+](=O)[O-])cc2[nH]c1=O)=N/NC(=O)C[N+](C)(C)C : its TGI reads > 100 µM

Noted for COC(=O)C1=C(O)C(C(=O)OC)[C@@]2(O)[C@@H](C(=O)OC)C(c3ccc(OC(=O)/C(=C/c4ccc(Cl)cc4)c4ccc(Cl)cc4)cc3)C[C@@H]1[C@@H]2C(=O)OC (some centres undefined) : its TGI reads > 100 µM

Noted for COc1ccc(N2CCN(C(=O)c3ccccc3Nc3ccnc(C(F)(F)F)c3)CC2)cc1 : its TGI reads > 100 µM

Noted for COc1ccc(C2(c3ccc(OC)cc3)OC(=O)c3cccc4cccc2c34)cc1 : its TGI reads > 100 µM

====

Tested on: SW-620 colon
Assay: NCI tumour cell line growth inhibition, 48 h
Readout name: TGI

A selection of reference data follows.
Nc1ccc2c(c1)C(=O)c1ccccc1-2 ... > 100 µM
COC(=O)C(/C(=N/NC(=O)c1ccncc1)C(=O)Nc1ccccc1OC)c1nc2ccc(Cl)cc2[nH]c1=O (configuration not stated) ... > 100 µM
COc1ccc(N2CCN(C(=O)c3ccccc3Nc3ccnc(C(F)(F)F)c3)CC2)cc1 ... > 100 µM
Cc1cc2ccccc2c[n+]1CC(O)C[n+]1cc2ccccc2cc1C ... > 100 µM
Cc1cc(NS(=O)(=O)c2ccc(Nc3c4ccccc4nc4c(C(=O)Nc5ccc(S(=O)(=O)N=C(N)N)cc5)cccc34)cc2)no1 ... > 100 µM
CCc1nnc(-n2c(C)nc3cc(Cl)ccc3c2=O)s1 ... > 100 µM
CCCCCCCCCCCC(=O)OCC1OC(n2cc(F)c(=O)[nH]c2=O)C(NC(=O)OCc2ccccc2)C(O)C1O (configuration not stated) ... 41.5 µM
COc1ccc(/C=C/c2cc(O)cc(OC)c2)cc1 ... > 100 µM

Measured TGI (SW-620 colon), entry O=C(C1=C(C(=O)c2ccccc2)SC2(S1)C(C(=O)c1ccccc1)=C(C(=O)c1ccccc1)Sc1c2ssc1=O)c1ccccc1 : > 100 µM

Measured TGI (SW-620 colon), entry CC(=O)/C=C/C=C(\C)CC/C=C(\C)CC(C)C : 35.3 µM

Measured TGI (SW-620 colon), entry O=C1c2ccccc2C(=O)c2c(NCCCNCCO)ccc(NCCCNCCO)c21 : 17.6 µM

Ref: PubChem BioAssay (NCI)
